# System: RXF 393 renal
# experimentSummary: NCI-60 one-dose screen, 48 h (100 = growth as untreated, 0 = no growth, -100 = all killed)
# conditionSet: 10 µM unless noted
The panel holds about 83,000 compounds, 20% with a hit somewhere; the sample as a whole holds those more often.
Threshold 70%. growth below it: Yes. growth at it or above: No.

1. CC1=C2[C@@H](CC1)[C@]1(C)O[C@@](C3CCNCC3)(C[C@H]1OC(=O)CO)[C@H]2OC(=O)/C=C/c1ccccc1	Yes
2. C=C(C)[C@@H]1CC[C@]2(C)[C@H](C=CC3=C4C[C@@](C)(CO)CC[C@]4(C)CC[C@]32C)[C@@]1(C)CCCN	Yes
3. CC(=O)Nc1sc2c(c1-c1nc3ccccc3s1)CNC2	Yes
4. O=C(/C=C/c1cccc(Oc2ccccc2)c1)c1ccc(Nc2nc(Nc3ccc(F)cc3)nc(Nc3ccc(Cl)cc3)n2)cc1	No
5. Cn1c2ccccc2c2c3c(c4c5cc(Br)ccc5n(C)c4c21)C(=O)N(O)C3=O	Yes

Exercise: Given COC12C=C/C(=C(/C(=O)OCc3csc(SC)n3)C(=O)CCCCCCCCC3(OC)C=C/C(=C(/C(=O)OCc4cnc(SC)s4)C(=O)CCCCCCCC1)O3)O2 (stereo not drawn) , is recorded growth strictly lower than 70%?
Key: Yes

Exercise: Given O=C(O)CC(C(=O)O)/C(=C\c1ccccc1)c1ccccc1 (stereo not drawn) , is recorded growth strictly lower than 70%?
Key: No

* * *

# Tested on: BT-549 breast
# experimentSummary: NCI-60 one-dose screen, 48 h (100 = growth as untreated, 0 = no growth, -100 = all killed)
# conditionSet: 10 µM unless noted
# Description: Growth inhibition of the BT-549 human tumor cell line is measured as a screen for anti-cancer activity. Cells are grown in 96 well plates and exposed to the test compound for 48 hours. Compounds are tested at a single concentration, which is 10^-5 M for most compounds. The reported endpoint is percent growth (GI% or GIPRCNT), where numbers from 0 - 100% represent growth inhibition, and numbers from -100% - 0 represent cell death. For example, a value of 40 represents 60% growth inhibition. […]
This is part of a sample that, as a whole, favours compounds with a hit. Of some 83,000 tested, about 20% had one in any assay.
Hi, to clarify the labels: class 1 covers growth from 80% upward, class 0 covers anything below 80%.

Before answering, review these 5 worked examples.
1. CN(C)CCCn1c2c(c3cnccc3c1=O)C(=O)c1ccccc1-2	class 0
2. O=C(Nc1ccc(Oc2cccc(Cl)c2)c(Cl)c1)c1cccnn1	class 1
3. O=S(=O)(Nc1cc(Sc2nc3ccccc3s2)c(O)c2ccccc12)c1ccc2ccccc2c1	class 1
4. CCOC(=O)c1cnn(CC(C)O)c1NC(=O)NCc1ccccc1C(F)(F)F (centres undefined)	class 1
5. O=C(c1ccc(Br)cc1)C(Br)C(c1ccc(Cl)cc1)C(c1ccccc1)[N+](=O)[O-] (centres undefined)	class 1

Exercise: Say whether O=C1C=CC2(O)OC/C(=C\c3ccccc3)C(O)=C2C1=O (centres undefined) shows growth of 80% or more.
Key: class 0

Exercise: Say whether C=C(c1ccc(C(=O)O)c(F)c1)c1cc2c(cc1C)C(C)(C)CCC2(C)C shows growth of 80% or more.
Key: class 1

Exercise: Say whether COc1ccc(C=Nc2c(C(=O)Nc3cccc(Cl)c3C)sc3nc(C)c(C(=O)/C=C/c4ccc(OC)cc4)cc23)cc1 shows growth of 80% or more.
Key: class 0
